Non-standard residues stand in square brackets, D forms with d. Residues, ends and D or L forms follow the SMILES beside them. pGlu = O=C1CC[C@@H](C(=O)O)N1; azaGly = NNC(=O)O
parameterMeasured: melting point

**Q:** Can you look up the measured melting point of Cc1cc(F)c(-n2nc(C(F)(F)F)nc2NC(=O)C(F)(F)F)cc1C(S(=O)C(c1cc(-n2nc(C(F)(F)F)nc2NC(=O)C(F)(F)F)c(F)cc1C)C(F)(F)F)C(F)(F)F (centres undefined) for me?
**A:** 233 to 237 °C

**Q:** Can you look up the measured melting point of COc1cc(OC)c(/C=C/C(c2ccc(OC)c(NCCCC(=O)O)c2)S(=O)(=O)C(/C=C/c2c(OC)cc(OC)cc2OC)c2ccc(OC)c(NCCCC(=O)O)c2)c(OC)c1 (centres undefined) for me?
**A:** 86 to 88 °C

**Q:** Can you look up the measured melting point of OCCOc1ccc(-c2ccc(OCCO)cc2)cc1 for me?
**A:** 201 to 202 °C

**Q:** Can you look up the measured melting point of CS(=N)(=O)Cc1ccc(Cl)nc1 (centres undefined) for me?
**A:** 134 to 136 °C

**Q:** Can you look up the measured melting point of BrCCCCCCCCCCCBr for me?
**A:** -11 °C

**Q:** Can you look up the measured melting point of O=C(Cl)C(F)(F)F for me?
**A:** -146 °C

**Q:** Can you look up the measured melting point of CC(C)C[C@H](NC(=O)[C@@H](Cc1ccccc1)NC(=O)[C@H](Cc1ccc(O)cc1)NC(=O)[C@H](CO)NC(=O)[C@H](Cc1c[nH]c2ccccc12)NC(=O)[C@@H](Cc1ccccc1)NC(=O)[C@@H]1CCC(=O)N1)C(=O)N[C@@H](CCCNC(=N)N)C(=O)N1CCC[C@H]1C(=O)NNC(N)=O ([pGlu][dF]WSY[dF]LRP[azaGly]-NH2) for me?
**A:** 179 to 180 °C

**Q:** Can you look up the measured melting point of CC(=O)N1C(C)(C)CC(OC(=O)C(Cc2cc(C)c(O)c(C(C)(C)C)c2)(Cc2cc(C)c(O)c(C(C)(C)C)c2)C(=O)OC2CC(C)(C)N(C(C)=O)C(C)(C)C2)CC1(C)C for me?
**A:** 189 °C

**Q:** Can you look up the measured melting point of CC(C)C(NS(=O)(=O)N(C)Cc1ccccn1)C(=O)NC(Cc1ccccc1)C(O)C(O)C(Cc1ccccc1)NC(=O)C(NS(=O)(=O)N(C)Cc1ccccn1)C(C)C (centres undefined) for me?
**A:** 85 to 89 °C

**Q:** Can you look up the measured melting point of COC1C(=O)C2(C)C(OC)CC3OCC3(OC(C)=O)C2C(OC(=O)c2ccccc2)C2(O)CC(OC(=O)C(O)C(NC(=O)OC(C)(C)C)c3ccccc3)C(C)=C1C2(C)C (centres undefined) for me?
**A:** 125 to 145 °C

**Q:** Can you look up the measured melting point of CCOC(=O)N1c2cc(OC)c(OC)cc2C(=O)C(=CN)C1C (centres undefined) for me?
**A:** 92 to 95 °C

**Q:** Can you look up the measured melting point of CCCCCCCCCCCCCCCCCC(=O)OCC=C(C)CCC=C(C)CCC=C(C)CCC=C(C)CCC=C(C)CCC=C(C)CCC=C(C)CCC=C(C)CCC=C(C)C for me?
**A:** 36 to 37 °C

**Q:** Can you look up the measured melting point of O=C(Oc1ccc2c(OC(=O)c3ccc(OCc4ccccc4)cc3)c3cc(OC(=O)c4ccc(OCc5ccccc5)cc4)ccc3cc2c1)c1ccc(OCc2ccccc2)cc1 for me?
**A:** 219 to 221 °C

**Q:** Can you look up the measured melting point of O=C(CCl)Nc1nc(-c2ccco2)c(C(=O)c2ccccn2)s1 for me?
**A:** 184 to 185 °C

Reference source: a melting point compilation (Tetko et al.)
